# SETTINGS: in n-propanol, 313.15 K
EXPERIMENTAL_READOUT: solubility (mole fraction)
No unit in the answer, please; the number alone is enough.

Query string: Returns the measured solubility (mole fraction) for the input molecule. Input: `O=C(Nc1ccccc1)Nc1ccnc(Cl)c1`
Result string: 0.0453

====

# SETTINGS: in ethanol, 283.15 K
EXPERIMENTAL_READOUT: solubility (mole fraction)
No unit in the answer, please; the number alone is enough.

Query string: Returns the measured solubility (mole fraction) for the input molecule. Input: `O=C(Nc1ccccc1)Nc1ccnc(Cl)c1`
Result string: 0.0193

====

# SETTINGS: in acetone, 288.15 K
EXPERIMENTAL_READOUT: solubility (mole fraction)

Query string: Returns the measured solubility (mole fraction) for the input compound. Input: `O=C(Nc1ccccc1)Nc1ccnc(Cl)c1`
Result string: 0.0346
